# protocol summary: Pharmacokinetics of four ginsenosides in rat plasma after oral administration of PQ-AG and PQ extracts (UPLC-MS/MS)
# Type: in vivo
# reported conditions: male, SD, po, 1.08 g/kg, PQ-AG group: oral PQ-AG extract 1.08 g/kg, male SD rats, n = 6, mean ± SD, read-out: AUC0⟶t
readout label: AUC (ng·h/mL)
A number alone suffices; assume ng·h/mL.

Recorded AUC of `CC(C)=CCC[C@](C)(O[C@@H]1O[C@H](CO[C@@H]2O[C@H](CO)[C@@H](O)[C@H](O)[C@H]2O)[C@@H](O)[C@H](O)[C@H]1O)[C@H]1CC[C@]2(C)[C@@H]1[C@H](O)C[C@@H]1[C@@]3(C)CC[C@H](O[C@@H]4O[C@H](CO)[C@@H](O)[C@H](O)[C@H]4O[C@@H]4O[C@H](CO)[C@@H](O)[C@H](O)[C@H]4O)C(C)(C)[C@@H]3CC[C@]12C` , please.
8130

Next record, please: `CC(C)=CCC[C@](C)(O[C@@H]1O[C@H](CO[C@@H]2OC[C@H](O)[C@H](O)[C@H]2O)[C@@H](O)[C@H](O)[C@H]1O)[C@H]1CC[C@]2(C)[C@@H]1[C@H](O)C[C@@H]1[C@@]3(C)CC[C@H](O[C@@H]4O[C@H](CO)[C@@H](O)[C@H](O)[C@H]4O[C@@H]4O[C@H](CO)[C@@H](O)[C@H](O)[C@H]4O)C(C)(C)[C@@H]3CC[C@]12C`
2460

Query `CC(C)=CCC[C@](C)(O[C@@H]1O[C@H](CO)[C@@H](O)[C@H](O)[C@H]1O)[C@H]1CC[C@]2(C)[C@@H]1[C@H](O)C[C@@H]1[C@@]3(C)CC[C@H](O[C@@H]4O[C@H](CO)[C@@H](O)[C@H](O)[C@H]4O[C@@H]4O[C@H](CO)[C@@H](O)[C@H](O)[C@H]4O)C(C)(C)[C@@H]3CC[C@]12C` next
3870

Queued: `CC(C)=CCC[C@](C)(O[C@@H]1O[C@H](CO)[C@@H](O)[C@H](O)[C@H]1O)[C@H]1CC[C@]2(C)[C@@H]1[C@H](O)C[C@@H]1[C@@]3(C)CC[C@H](O)C(C)(C)[C@@H]3[C@@H](O[C@@H]3O[C@H](CO)[C@@H](O)[C@H](O)[C@H]3O[C@@H]3O[C@@H](C)[C@H](O)[C@@H](O)[C@H]3O)C[C@]12C`
3430

* * *

Provide the reported half-life of each item.
# protocol summary: Pharmacokinetics of four ginsenosides in rat plasma after oral administration of PQ-AG and PQ extracts (UPLC-MS/MS)
# Assay type: in vivo
# reported conditions: PQ-AG group: oral PQ-AG extract 1.08 g/kg, male SD rats, n = 6, mean ± SD
In your response, the unit should come after the numeric value.

So what's the measured half-life for this one? CC(C)=CCC[C@](C)(O[C@@H]1O[C@H](CO[C@@H]2O[C@H](CO)[C@@H](O)[C@H](O)[C@H]2O)[C@@H](O)[C@H](O)[C@H]1O)[C@H]1CC[C@]2(C)[C@@H]1[C@H](O)C[C@@H]1[C@@]3(C)CC[C@H](O[C@@H]4O[C@H](CO)[C@@H](O)[C@H](O)[C@H]4O[C@@H]4O[C@H](CO)[C@@H](O)[C@H](O)[C@H]4O)C(C)(C)[C@@H]3CC[C@]12C [Rb1]
18.5 h

Moving on to the next compound: CC(C)=CCC[C@](C)(O[C@@H]1O[C@H](CO[C@@H]2OC[C@H](O)[C@H](O)[C@H]2O)[C@@H](O)[C@H](O)[C@H]1O)[C@H]1CC[C@]2(C)[C@@H]1[C@H](O)C[C@@H]1[C@@]3(C)CC[C@H](O[C@@H]4O[C@H](CO)[C@@H](O)[C@H](O)[C@H]4O[C@@H]4O[C@H](CO)[C@@H](O)[C@H](O)[C@H]4O)C(C)(C)[C@@H]3CC[C@]12C [Rb2]
15.6 h

Subsequent entry: CC(C)=CCC[C@](C)(O[C@@H]1O[C@H](CO)[C@@H](O)[C@H](O)[C@H]1O)[C@H]1CC[C@]2(C)[C@@H]1[C@H](O)C[C@@H]1[C@@]3(C)CC[C@H](O)C(C)(C)[C@@H]3[C@@H](O[C@@H]3O[C@H](CO)[C@@H](O)[C@H](O)[C@H]3O[C@@H]3O[C@@H](C)[C@H](O)[C@@H](O)[C@H]3O)C[C@]12C [Re]
9.81 h

Please do the same for CC(C)=CCC[C@](C)(O[C@@H]1O[C@H](CO)[C@@H](O)[C@H](O)[C@H]1O)[C@H]1CC[C@]2(C)[C@@H]1[C@H](O)C[C@@H]1[C@@]3(C)CC[C@H](O[C@@H]4O[C@H](CO)[C@@H](O)[C@H](O)[C@H]4O[C@@H]4O[C@H](CO)[C@@H](O)[C@H](O)[C@H]4O)C(C)(C)[C@@H]3CC[C@]12C [Rd] as well.
14.2 h
